# assay system: Beta-2 adrenergic receptor (Homo sapiens)
# Sequence (P07550 whole entry): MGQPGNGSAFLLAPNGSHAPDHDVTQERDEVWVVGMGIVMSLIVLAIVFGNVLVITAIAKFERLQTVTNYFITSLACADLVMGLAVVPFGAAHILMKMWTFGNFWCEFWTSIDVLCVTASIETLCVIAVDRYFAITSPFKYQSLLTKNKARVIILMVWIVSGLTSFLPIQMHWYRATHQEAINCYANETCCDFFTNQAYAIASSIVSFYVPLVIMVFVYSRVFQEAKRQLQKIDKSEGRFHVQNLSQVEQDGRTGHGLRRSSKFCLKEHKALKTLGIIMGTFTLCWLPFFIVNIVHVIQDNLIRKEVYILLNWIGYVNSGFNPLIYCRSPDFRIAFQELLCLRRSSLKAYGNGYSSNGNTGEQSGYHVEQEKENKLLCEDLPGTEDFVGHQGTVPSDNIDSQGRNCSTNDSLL
# method notes: Displacement of [3H]CGP12177 from human recombinant beta2 adrenergic receptor expressed in HEK293 cell membranes after 90 mins by beta counting method
Kindly supply the reported Ki values for the records listed here.
Give just the number in µM; leave the unit off.

Item under review: `CCCCC1CCN(CCCN2C(=O)CCc3ccccc32)CC1` . Reported Ki? 43.7

Consider the compound `O=C1CCc2ccccc2N1CCCN1CCN(c2ccccc2)CC1` and give its measured Ki. 35.5

Return reported Ki; argument: `O=C1CCc2ccccc2N1CCCN1CCC(Cc2ccccc2)CC1` 9.55

----------
# assay system: Alpha-1A adrenergic receptor (Homo sapiens)
# Sequence (P35348 whole entry): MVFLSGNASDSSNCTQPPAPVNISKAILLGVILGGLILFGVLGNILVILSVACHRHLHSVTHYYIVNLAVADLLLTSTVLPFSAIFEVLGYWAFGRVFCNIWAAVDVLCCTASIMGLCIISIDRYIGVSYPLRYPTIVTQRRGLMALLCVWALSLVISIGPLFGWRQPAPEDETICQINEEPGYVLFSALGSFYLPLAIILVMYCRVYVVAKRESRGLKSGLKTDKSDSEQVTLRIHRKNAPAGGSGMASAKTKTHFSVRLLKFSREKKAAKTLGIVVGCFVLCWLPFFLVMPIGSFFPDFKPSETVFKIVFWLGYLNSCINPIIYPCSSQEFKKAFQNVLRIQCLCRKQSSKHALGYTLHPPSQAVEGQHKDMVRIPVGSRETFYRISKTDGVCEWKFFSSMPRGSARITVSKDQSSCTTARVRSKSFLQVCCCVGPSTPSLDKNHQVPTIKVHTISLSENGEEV
# method notes: Displacement of [3H]prazosin from human recombinant alpha-1A adrenergic receptor expressed in CHO cell membranes after 30 mins by liquid scintillation counting method
I'd appreciate it if you could supply pKi values for the items below.
# pKi = -log10(concentration in molar units)

Given the molecule `CCCCC1CCN(CCCN2C(=O)CCc3ccccc32)CC1` , what is its reported pKi? 6.36

Requested field: pKi. Item: `O=C1CCc2ccccc2N1CCCN1CCC(Cc2ccccc2)CC1` 6.59

Requested read-out: pKi. Entry: `O=C1CCc2ccccc2N1CCCN1CCN(c2ccccc2)CC1` 7.27

----------
# method notes: Half life in CD1 mouse plasma at 3 mg/kg, sc by UPLC-MS analysis
# Format: ADME, organism-based
test readout: half-life (min)
The reply should be a number in min, with the unit left off.

Given the compound `O=C1CCc2ccccc2N1CCCN1CCN(c2ccccc2)CC1` , what is its reported half-life? 46.2

----------
test readout: Ki (µM)
Write the answer as a number in µM, unit excluded.

What reported Ki corresponds to `O=C1CCc2ccccc2N1CCCN1CCC(Cc2ccccc2)CC1` on Muscarinic acetylcholine receptor M5 (Homo sapiens, UniProt P08912)? 3.72

Provide the documented Ki with Muscarinic acetylcholine receptor M5 (Homo sapiens, UniProt P08912) as the system for `O=C1CCc2ccccc2N1CCCN1CCN(c2ccccc2)CC1` 27.5

Please provide the recorded Ki for `CCCCN1CCN(CCCN2C(=O)CCc3ccccc32)CC1` , tested on Muscarinic acetylcholine receptor M5 (Homo sapiens, UniProt P08912). 9.12

API: value(readout= Ki, system= Muscarinic acetylcholine receptor M5 (Homo sapiens, UniProt P08912), query= `CC1CCN(CCCN2C(=O)CCc3ccccc32)CC1` ) 24

So what Ki did `O=C1CCc2ccccc2N1CCCN1CCC(c2ccccc2)CC1` get with Muscarinic acetylcholine receptor M5 (Homo sapiens, UniProt P08912)? 2.04

Report Ki for `O=C1CCc2ccccc2N1CCCN1CCN(CCc2ccccc2)CC1` tested on Muscarinic acetylcholine receptor M5 (Homo sapiens, UniProt P08912). 7.94

What reported Ki corresponds to `O=C1CCc2ccccc2N1CCCN1CCC(CCc2ccccc2)CC1` on Muscarinic acetylcholine receptor M5 (Homo sapiens, UniProt P08912)? 0.759

# returns recorded Ki (system: Muscarinic acetylcholine receptor M5 (Homo sapiens, UniProt P08912)) for `CCCC1CCN(CCCN2C(=O)CCc3ccccc32)CC1` 1.95
